target: γ-secretase cleavage of NotchΔE (Homo sapiens, UniProt P49768); construct: endogenous in cells; host or cells: HEK293 stably expressing Swedish mutant human APP695, transiently transfected with NotchΔE; test: NICD generation in NotchΔE transfected HEK293 cells, Western blot; format: cell-based; conditions: EC50 for the inhibition of NICD generation in cultured cells, Fig. 2
pEC50: −log10 of the molar value.
PROPERTY_MEASURED: pEC50

// Input: C[C@H](NC(=O)Cc1cc(F)cc(F)c1)C(=O)N[C@H]1N=C(c2ccccc2)c2ccccc2N(C)C1=O . Output its pEC50 only.
> 7.00

---

target: γ-secretase cleavage of NotchΔE (Homo sapiens, UniProt P49768); construct: endogenous in cells; host or cells: HEK293 stably expressing Swedish mutant human APP695, transiently transfected with NotchΔE; assay: NICD generation in NotchΔE transfected HEK293 cells, Western blot; assay type: cell-based; settings: Fig. 2B and 2C; read-out: EC50 to reduce NICD generation in cultured cells
pEC50: −log10 of the molar value.
PROPERTY_MEASURED: pEC50

// Input: C[C@H](NC(=O)Cc1cc(F)cc(F)c1)C(=O)N[C@H](C(=O)OC(C)(C)C)c1ccccc1 . Output its pEC50 only.
~6.00

---

molecular target: γ-secretase cleavage of NotchΔE (Homo sapiens); construct: endogenous in cells; host or cells: HEK293 stably expressing Swedish mutant human APP695, transiently transfected with NotchΔE; experiment: NICD generation in NotchΔE transfected HEK293 cells, Western blot; format: cell-based; settings: EC50 to reduce NICD generation in cultured cells, Fig. 2B and 2C
PROPERTY_MEASURED: pEC50
One number for each entry, as −log10 of the molar value.

// Input: C[C@H](NC(=O)Cc1cc(F)cc(F)c1)C(=O)N[C@H]1N=C(c2ccccc2)c2ccccc2N(C)C1=O . Output its pEC50 only.
8.00

---

target: γ-secretase cleavage of APP (Homo sapiens, UniProt P49768); construct: endogenous in cells; host or cells: HEK293 stably expressing Swedish mutant human APP695, transiently transfected with NotchΔE; assay: Aβ ELISA from HEK293 cells transiently transfected with APP; format: cell-based; details: EC for inhibiting 50% of Aβ production, APP expressing HEK293, α-Notch experiment, Fig. 3A
PROPERTY_MEASURED: EC50

// Input: C[C@H](NC(=O)Cc1cc(F)cc(F)c1)C(=O)N[C@H]1N=C(c2ccccc2)c2ccccc2N(C)C1=O [cpd E] . Output its EC50 only.
< 0.1 nM

---

molecular target: γ-secretase cleavage of APP (Homo sapiens); construct: endogenous in cells; host or cells: HEK293 stably expressing Swedish mutant human APP695, transiently transfected with NotchΔE; assay: Aβ in conditioned media of APP expressing HEK293 cells transfected with NotchΔE, ELISA; assay type: cell-based; settings: HEK293, 8 hr treatment; read-out: concentration inhibiting levels of Aβ to 50% in cultured cells
pIC50: −log10 of the molar value.
PROPERTY_MEASURED: pIC50

Under γ-secretase cleavage of APP (Homo sapiens), report pIC50 for C[C@H](NC(=O)Cc1cc(F)cc(F)c1)C(=O)N[C@H](C(=O)OC(C)(C)C)c1ccccc1 [DAPT]
~6.30

---

biological target: γ-secretase cleavage of chimeric APP-α-NOTCH (Homo sapiens, UniProt P49768); construct: endogenous in cells; assay: Nβ* ELISA from HEK293 cells expressing APP-α-Notch
pEC50: −log10 of the molar value.
PROPERTY_MEASURED: pEC50

Under γ-secretase cleavage of chimeric APP-α-NOTCH (Homo sapiens, UniProt P49768), report pEC50 for C[C@H](NC(=O)Cc1cc(F)cc(F)c1)C(=O)N[C@H]1N=C(c2ccccc2)c2ccccc2N(C)C1=O
~8.10

---

molecular target: γ-secretase cleavage of APP (Homo sapiens); construct: endogenous in cells; host or cells: HEK293 stably expressing Swedish mutant human APP695, transiently transfected with NotchΔE; test: Aβ ELISA from HEK293 cells transiently transfected with APP; type: cell-based; details: HEK293, m-Notch experiment, Fig. 3B; read-out: EC50 for APP (Aβ)
PROPERTY_MEASURED: EC50

// Input: C[C@H](NC(=O)Cc1cc(F)cc(F)c1)C(=O)N[C@H]1N=C(c2ccccc2)c2ccccc2N(C)C1=O . Output its EC50 only.
~0.03 nM

src = paper PMC2637266
